αs1 CN, 24 hours, 11° C. values by entry
# MEASURED_TARGET: T1, alpha-s1 casein from Bos taurus
# T1 chain: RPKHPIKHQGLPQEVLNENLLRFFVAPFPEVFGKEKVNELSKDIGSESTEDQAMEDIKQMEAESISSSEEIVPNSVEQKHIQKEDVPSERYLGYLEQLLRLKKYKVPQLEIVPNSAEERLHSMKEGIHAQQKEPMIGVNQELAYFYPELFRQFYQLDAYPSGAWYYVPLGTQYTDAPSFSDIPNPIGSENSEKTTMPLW
QUANTITY: αs1 CN, 24 hours, 11° C. (Volume)

PROTEIN: camel chymosin variant #146 (Q288G) (protein) GKVAREPLTSYLDSQYFGKIYIGTPPQEFTVVFDTGSSDLWVPSIYCKSNVCKNHHRFDPRKSSTFRNLGKPLSIHYGTGSMEGFLGYDTVTVSNIVDPNQTVGLSTEQPGEVFTYSEFDGILGLAYPSLASEYSVPVFDNMMDRHLVARDLFSVYMDRNGQGSMLTLGAIDPSYYTGSLHWVPVTLQQYWQFTVDSVTINGVAVACVGGCQAILDTGTSVLFGPSSDILKIQMAIGATENRYGEFDVNCGNLRSMPTVVFEINGRDYPLSPSAYTSKDQGFCTSGFGGDNNSELWILGDVFIREYYSVFDRANNRVGLAKAI
NUMERIC_READOUT: 1.23e+07

PROTEIN: camel chymosin variant #162 (L295R) (protein) GKVAREPLTSYLDSQYFGKIYIGTPPQEFTVVFDTGSSDLWVPSIYCKSNVCKNHHRFDPRKSSTFRNLGKPLSIHYGTGSMEGFLGYDTVTVSNIVDPNQTVGLSTEQPGEVFTYSEFDGILGLAYPSLASEYSVPVFDNMMDRHLVARDLFSVYMDRNGQGSMLTLGAIDPSYYTGSLHWVPVTLQQYWQFTVDSVTINGVAVACVGGCQAILDTGTSVLFGPSSDILKIQMAIGATENRYGEFDVNCGNLRSMPTVVFEINGRDYPLSPSAYTSKDQGFCTSGFQGDNNSERWILGDVFIREYYSVFDRANNRVGLAKAI
NUMERIC_READOUT: 1.67e+07

PROTEIN: camel chymosin variant #136 (F223C) (protein) GKVAREPLTSYLDSQYFGKIYIGTPPQEFTVVFDTGSSDLWVPSIYCKSNVCKNHHRFDPRKSSTFRNLGKPLSIHYGTGSMEGFLGYDTVTVSNIVDPNQTVGLSTEQPGEVFTYSEFDGILGLAYPSLASEYSVPVFDNMMDRHLVARDLFSVYMDRNGQGSMLTLGAIDPSYYTGSLHWVPVTLQQYWQFTVDSVTINGVAVACVGGCQAILDTGTSVLCGPSSDILKIQMAIGATENRYGEFDVNCGNLRSMPTVVFEINGRDYPLSPSAYTSKDQGFCTSGFQGDNNSELWILGDVFIREYYSVFDRANNRVGLAKAI
NUMERIC_READOUT: 1.06e+07

PROTEIN: camel chymosin variant #150 (Q288S) (protein) GKVAREPLTSYLDSQYFGKIYIGTPPQEFTVVFDTGSSDLWVPSIYCKSNVCKNHHRFDPRKSSTFRNLGKPLSIHYGTGSMEGFLGYDTVTVSNIVDPNQTVGLSTEQPGEVFTYSEFDGILGLAYPSLASEYSVPVFDNMMDRHLVARDLFSVYMDRNGQGSMLTLGAIDPSYYTGSLHWVPVTLQQYWQFTVDSVTINGVAVACVGGCQAILDTGTSVLFGPSSDILKIQMAIGATENRYGEFDVNCGNLRSMPTVVFEINGRDYPLSPSAYTSKDQGFCTSGFSGDNNSELWILGDVFIREYYSVFDRANNRVGLAKAI
NUMERIC_READOUT: 1.72e+07

PROTEIN: bovine chymosin B variant #62 (V223Q) (protein) GEVASVPLTNYLDSQYFGKIYLGTPPQEFTVLFDTGSSDFWVPSIYCKSNACKNHQRFDPRKSSTFQNLGKPLSIHYGTGSMQGILGYDTVTVSNIVDIQQTVGLSTQEPGDVFTYAEFDGILGMAYPSLASEYSIPVFDNMMNRHLVAQDLFSVYMDRNGQESMLTLGAIDPSYYTGSLHWVPVTVQQYWQFTVDSVTISGVVVACEGGCQAILDTGTSKLQGPSSDILNIQQAIGATQNQYGEFDIDCDNLSYMPTVVFEINGKMYPLTPSAYTSQDQGFCTSGFQSENHSQKWILGDVFIREYYSVFDRANNLVGLAKAI
NUMERIC_READOUT: 1.34e+07

PROTEIN: camel chymosin variant #149 (Q288R) (protein) GKVAREPLTSYLDSQYFGKIYIGTPPQEFTVVFDTGSSDLWVPSIYCKSNVCKNHHRFDPRKSSTFRNLGKPLSIHYGTGSMEGFLGYDTVTVSNIVDPNQTVGLSTEQPGEVFTYSEFDGILGLAYPSLASEYSVPVFDNMMDRHLVARDLFSVYMDRNGQGSMLTLGAIDPSYYTGSLHWVPVTLQQYWQFTVDSVTINGVAVACVGGCQAILDTGTSVLFGPSSDILKIQMAIGATENRYGEFDVNCGNLRSMPTVVFEINGRDYPLSPSAYTSKDQGFCTSGFRGDNNSELWILGDVFIREYYSVFDRANNRVGLAKAI
NUMERIC_READOUT: 6.7e+06

PROTEIN: bovine chymosin B variant #71 (A51V, K221V) (protein) GEVASVPLTNYLDSQYFGKIYLGTPPQEFTVLFDTGSSDFWVPSIYCKSNVCKNHQRFDPRKSSTFQNLGKPLSIHYGTGSMQGILGYDTVTVSNIVDIQQTVGLSTQEPGDVFTYAEFDGILGMAYPSLASEYSIPVFDNMMNRHLVAQDLFSVYMDRNGQESMLTLGAIDPSYYTGSLHWVPVTVQQYWQFTVDSVTISGVVVACEGGCQAILDTGTSVLVGPSSDILNIQQAIGATQNQYGEFDIDCDNLSYMPTVVFEINGKMYPLTPSAYTSQDQGFCTSGFQSENHSQKWILGDVFIREYYSVFDRANNLVGLAKAI
NUMERIC_READOUT: 2.5e+06

PROTEIN: camel chymosin variant #152 (D290G) (protein) GKVAREPLTSYLDSQYFGKIYIGTPPQEFTVVFDTGSSDLWVPSIYCKSNVCKNHHRFDPRKSSTFRNLGKPLSIHYGTGSMEGFLGYDTVTVSNIVDPNQTVGLSTEQPGEVFTYSEFDGILGLAYPSLASEYSVPVFDNMMDRHLVARDLFSVYMDRNGQGSMLTLGAIDPSYYTGSLHWVPVTLQQYWQFTVDSVTINGVAVACVGGCQAILDTGTSVLFGPSSDILKIQMAIGATENRYGEFDVNCGNLRSMPTVVFEINGRDYPLSPSAYTSKDQGFCTSGFQGGNNSELWILGDVFIREYYSVFDRANNRVGLAKAI
NUMERIC_READOUT: 9.7e+06

Origin of measurements: patent US20150140169
